pIC50: −log10 of the molar value.
# pIC50 per entry for Epidermal growth factor receptor (Homo sapiens)
endpointLabel: pIC50

smilesStructure: CN(C)c1ncc2cc(-c3c(Cl)cccc3Cl)c(=O)n(C)c2n1
targetOrSystem: Epidermal growth factor receptor (Homo sapiens)
Sequence (P00533 whole entry): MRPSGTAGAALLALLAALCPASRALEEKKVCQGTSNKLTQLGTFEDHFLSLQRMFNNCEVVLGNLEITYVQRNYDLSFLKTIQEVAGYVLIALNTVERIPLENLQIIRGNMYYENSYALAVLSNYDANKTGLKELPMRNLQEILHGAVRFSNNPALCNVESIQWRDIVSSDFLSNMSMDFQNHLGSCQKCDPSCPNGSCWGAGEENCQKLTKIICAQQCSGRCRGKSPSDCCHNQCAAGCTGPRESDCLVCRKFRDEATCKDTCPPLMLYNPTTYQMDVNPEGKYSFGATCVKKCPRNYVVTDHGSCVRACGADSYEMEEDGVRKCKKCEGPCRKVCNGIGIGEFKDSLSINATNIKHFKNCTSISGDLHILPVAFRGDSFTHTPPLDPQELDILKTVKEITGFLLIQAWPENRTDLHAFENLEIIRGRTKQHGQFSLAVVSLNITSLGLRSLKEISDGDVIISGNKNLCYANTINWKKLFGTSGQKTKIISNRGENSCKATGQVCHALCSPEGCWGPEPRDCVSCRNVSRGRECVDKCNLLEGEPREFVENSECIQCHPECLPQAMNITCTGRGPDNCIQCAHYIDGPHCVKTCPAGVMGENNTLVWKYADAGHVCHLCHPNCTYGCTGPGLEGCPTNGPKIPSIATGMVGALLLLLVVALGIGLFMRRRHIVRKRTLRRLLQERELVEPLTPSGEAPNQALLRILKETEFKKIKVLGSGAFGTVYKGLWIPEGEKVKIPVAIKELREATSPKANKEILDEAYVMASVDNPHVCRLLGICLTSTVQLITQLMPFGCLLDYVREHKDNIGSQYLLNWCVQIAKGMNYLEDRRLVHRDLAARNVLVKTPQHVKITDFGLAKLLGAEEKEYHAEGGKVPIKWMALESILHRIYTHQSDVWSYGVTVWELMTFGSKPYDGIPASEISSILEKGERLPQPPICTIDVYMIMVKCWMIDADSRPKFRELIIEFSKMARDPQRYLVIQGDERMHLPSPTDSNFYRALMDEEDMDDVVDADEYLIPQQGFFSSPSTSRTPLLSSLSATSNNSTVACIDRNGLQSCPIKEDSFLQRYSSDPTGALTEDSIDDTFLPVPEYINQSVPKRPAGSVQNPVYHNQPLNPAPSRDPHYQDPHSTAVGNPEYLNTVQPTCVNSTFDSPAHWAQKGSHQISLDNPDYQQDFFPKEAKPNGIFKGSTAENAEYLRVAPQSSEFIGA
measuredValue: < 4.30

smilesStructure: Cc1ncc2cc(-c3c(Cl)cccc3Cl)c(=O)n(C)c2n1
targetOrSystem: Epidermal growth factor receptor (Homo sapiens)
measuredValue: < 4.30

smilesStructure: COc1ccc(NC(=O)Nc2nc3nc(NCCCN4CCN(C)CC4)ncc3cc2-c2c(Cl)cccc2Cl)cc1
targetOrSystem: Epidermal growth factor receptor (Homo sapiens)
measuredValue: 6.14

* * *

pIC50: −log10 of the molar value.
# pIC50 per entry for Proto-oncogene tyrosine-protein kinase Src (Gallus gallus)

smilesStructure: Cc1ncc2cc(-c3c(Cl)cccc3Cl)c(=O)n(C)c2n1
targetOrSystem: Proto-oncogene tyrosine-protein kinase Src (Gallus gallus)
pIC50: < 4.30

smilesStructure: CN1CCN(CCCNc2ncc3cc(-c4c(Cl)cccc4Cl)c(=O)n(C)c3n2)CC1
targetOrSystem: Proto-oncogene tyrosine-protein kinase Src (Gallus gallus)
pIC50: 6.63

smilesStructure: COc1cc(OC)cc(-c2cc3cnc(N)nc3nc2NC(=O)NC(C)(C)C)c1
targetOrSystem: Proto-oncogene tyrosine-protein kinase Src (Gallus gallus)
pIC50: < 4.30

smilesStructure: COc1cc(OC)cc(-c2cc3cnc(N)nc3n(C)c2=O)c1
targetOrSystem: Proto-oncogene tyrosine-protein kinase Src (Gallus gallus)
pIC50: < 4.30

smilesStructure: CN1CCN(CCCNc2ncc3cc(-c4c(Cl)cccc4Cl)c(NC(=O)NCc4ccccc4)nc3n2)CC1
targetOrSystem: Proto-oncogene tyrosine-protein kinase Src (Gallus gallus)
pIC50: 7.52

smilesStructure: CN(C)c1ncc2cc(-c3c(Cl)cccc3Cl)c(=O)n(C)c2n1
targetOrSystem: Proto-oncogene tyrosine-protein kinase Src (Gallus gallus)
pIC50: < 4.30
